experiment: Solubility studies, shake-flask method with HPLC quantification of HAL; format: physicochemical; settings: PBS buffer (0.2 M) pH 6.8, 25 °C, pH 6.8, aqueous buffer, thermodynamic from solid; read-out: solubility in PBS pH 6.8
observedProperty: solubility at 24 h (µg/mL)
State the answer as a number, implicitly in µg/mL.

Looking up O=C(CCCN1CCC(O)(c2ccc(Cl)cc2)CC1)c1ccc(F)cc1 [HAL, Haloperidol, reference compound] , I found its solubility at 24 h recorded as 7

###

assay: Solubility studies, shake-flask method with HPLC quantification of HAL; format: physicochemical; conditions: 25 °C, pH 1.2, aqueous buffer, thermodynamic from solid; read-out: solubility in KCl pH 1.2
observedProperty: solubility at 24 h (µg/mL)
State the answer as a number, implicitly in µg/mL.

Looking up O=C(CCCN1CCC(O)(c2ccc(Cl)cc2)CC1)c1ccc(F)cc1.O=C(O)CC(=O)O [HAL^+·MO^–] , I found its solubility at 24 h recorded as 525

Looking up O=C(CCCN1CCC(O)(c2ccc(Cl)cc2)CC1)c1ccc(F)cc1.O=C(O)/C=C\C(=O)O [HAL^+·ME^–] , I found its solubility at 24 h recorded as 1400

Looking up O=C(CCCN1CCC(O)(c2ccc(Cl)cc2)CC1)c1ccc(F)cc1.O=C(CCCN1CCC(O)(c2ccc(Cl)cc2)CC1)c1ccc(F)cc1.O=C(O)/C=C/C(=O)O.O=C(O)/C=C/C(=O)O [(HAL^+)2·(FU^2–)·(FU)] , I found its solubility at 24 h recorded as 1060
